All figures here come from ChEMBL document CHEMBL1145384.

Could you please report measured IC50 for the items listed next?
- Tested on: MIA PaCa-2
- assay comment: Growth inhibition of MiaPaCa2 cells after 72 hrs by MTT assay
- Format: functional, cell-based
- cond: Homo sapiens, MIA PaCa-2, 72 h

Some molecules with known IC50 results, for comparison:
COc1cc(CC(O)(c2ccc(F)cc2)c2ccc(F)cc2)nc(OC)n1 | > 100 µM
COc1cc(/C=C(/O)c2ccc(F)cc2)nc(OC)n1 | > 100 µM

Switching to the query record.
Quick note, IC50 for COc1nc(CBr)c(Br)c(OC)n1 landed at 2 µM

---

- Tested on: Mammalian orthoreovirus 1
- assay comment: Antiviral activity against reovirus1 virus in Vero cells assessed as reduction of virus plaque formation after 7 days
- Format: functional, organism-based
- cond: Mammalian orthoreovirus 1, Vero, 168 h
pEC50: −log10 of the molar value.
test readout: pEC50

Hi! Can you tell me pEC50 for each of these compounds?
1. Nc1ncnc2c1ncn2C[C@H](O)CO [(S)-DHPA]
2. COc1cc(CC(C)(O)c2ccc(F)cc2)nc(OC)n1 (stereo not given)
3. COc1cc(/C=C(/O)c2ccc(F)cc2)nc(OC)n1
4. CC(=O)OC(C)(CF)Cc1cc(O)nc(O)n1 (stereo not given)
5. COc1cc(/C=C(/O)C(F)(F)F)nc(OC)n1

Result:
1. < 3.60
2. 3.70
3. < 3.70
4. < 3.70
5. < 4.00
